Target: Human Factor B (Homo sapiens, UniProt P00751)
Sequence (P00751 26-764): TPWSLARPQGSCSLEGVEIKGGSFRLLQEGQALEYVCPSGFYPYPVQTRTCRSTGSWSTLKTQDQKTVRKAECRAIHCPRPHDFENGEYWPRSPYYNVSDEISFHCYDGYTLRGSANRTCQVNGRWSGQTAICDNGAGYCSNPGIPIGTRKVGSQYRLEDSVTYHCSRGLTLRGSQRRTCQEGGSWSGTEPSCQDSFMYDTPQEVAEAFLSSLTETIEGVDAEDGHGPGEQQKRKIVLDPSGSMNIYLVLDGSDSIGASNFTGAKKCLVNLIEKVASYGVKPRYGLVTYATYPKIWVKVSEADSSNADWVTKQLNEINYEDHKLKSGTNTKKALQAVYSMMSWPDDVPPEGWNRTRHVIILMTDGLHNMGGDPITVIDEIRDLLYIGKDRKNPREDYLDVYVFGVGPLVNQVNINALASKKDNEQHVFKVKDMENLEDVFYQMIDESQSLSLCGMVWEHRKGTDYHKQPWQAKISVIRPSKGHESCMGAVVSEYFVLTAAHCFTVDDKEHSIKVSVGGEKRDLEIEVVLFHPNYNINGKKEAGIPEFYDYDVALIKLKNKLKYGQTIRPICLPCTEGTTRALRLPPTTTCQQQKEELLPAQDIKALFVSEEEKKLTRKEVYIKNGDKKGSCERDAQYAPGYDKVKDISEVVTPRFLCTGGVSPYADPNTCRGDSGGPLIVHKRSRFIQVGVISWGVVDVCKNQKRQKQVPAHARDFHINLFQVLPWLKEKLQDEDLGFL
Experiment: Human Factor B cleavage EC50 in 80% human plasma (Table 10A)
Type: biochemical
Settings: chymase-based engineered proteases; no plasma stated; read-out: fB Cleavage EC50
READOUT KIND: EC50
Answer format: value, then unit.

As a guide, the following entries are already answered.
Requested field: EC50. Item: C22S/S218I/A226R (protein, listed as Homo sapiens) IIGGTESKPHSRPYMAYLEIVTSNGPSKFCGGFLIRRNFVLTAAHCAGRSITVTLGAHNITEEEDTWQKLEVIKQFRHPKYNTSTLHHDIMLLKLKEKASLTLAVGTLPFPSQFNFVPPGRMCRVAGWGRTGVLKPGSDTLQEVKLRLMDPQACSHFRDFDHNLQLCVGNPRKTKSAFKGDSGGPLLCAGVAQGIVSYGRIDAKPPRVFTRISHYRPWINQILQAN
0.83 µM

What do you get for C22S/V138A/S189T/A226R (protein, listed as Homo sapiens) IIGGTESKPHSRPYMAYLEIVTSNGPSKFCGGFLIRRNFVLTAAHCAGRSITVTLGAHNITEEEDTWQKLEVIKQFRHPKYNTSTLHHDIMLLKLKEKASLTLAVGTLPFPSQFNFVPPGRMCRAAGWGRTGVLKPGSDTLQEVKLRLMDPQACSHFRDFDHNLQLCVGNPRKTKTAFKGDSGGPLLCAGVAQGIVSYGRSDAKPPRVFTRISHYRPWINQILQAN ?
4.42 µM

Next molecule, EC50 to be filled in.
Requested field: EC50. Item: C22S/V138A/G145D/S189T/A190S/A226R (protein, listed as Homo sapiens) IIGGTESKPHSRPYMAYLEIVTSNGPSKFCGGFLIRRNFVLTAAHCAGRSITVTLGAHNITEEEDTWQKLEVIKQFRHPKYNTSTLHHDIMLLKLKEKASLTLAVGTLPFPSQFNFVPPGRMCRAAGWGRTDVLKPGSDTLQEVKLRLMDPQACSHFRDFDHNLQLCVGNPRKTKTSFKGDSGGPLLCAGVAQGIVSYGRSDAKPPRVFTRISHYRPWINQILQAN
3.81 µM
